Tested On: PI3Kγ (Homo sapiens)
Assay Explanation: PI3Kγ inhibitory activity (PI3-kinase HTRF assay, inhibition ratio)
Type: biochemical
Condition Notes: 0.5 h, compound at 10 μmol/L; read-out: PI3Kg Inhibition Ratio % (10 μM)
# reported inhibition at 10 µM; entries follow
The reply should contain only the number, in %.

Guide cases for inhibition at 10 µM, answers given:
[[record]]
molecule = "CC(C)NC(=O)c1nn(C)cc1NC(=O)Nc1nc2c(s1)CN(c1cncc(C(F)(F)F)c1)CC2 [Compound I-132]"
endpoint_name = "inhibition at 10 µM"
u = "%"
assay_value = 85

[[record]]
molecule = "Cc1nc(NC(=O)Nc2ccccc2OCCC(C)C)sc1-c1csc(S(=O)(=O)N(C)CCN(C)C)c1 [Compound I-192]"
endpoint_name = "inhibition at 10 µM"
u = "%"
assay_value = 94

[[record]]
molecule = "Cc1cc(N2CCc3nc(NC(=O)Nc4ccccc4C(=O)N[C@@H](C)CO)sc3C2)nc(Cl)n1 [Compound I-168]"
endpoint_name = "inhibition at 10 µM"
u = "%"
assay_value = 89


Now turn to the next molecule.
What does the record list as inhibition at 10 µM for COc1cc(N2CCc3nc(NC(=O)Nc4ccccc4C(=O)O)sc3C2)nc(OC)n1.Cl.Cl [Compound I-5] ?
85

----------
Tested On: PI3Kγ (Homo sapiens, UniProt P48736)
Sequence (P48736 whole entry, species assumed): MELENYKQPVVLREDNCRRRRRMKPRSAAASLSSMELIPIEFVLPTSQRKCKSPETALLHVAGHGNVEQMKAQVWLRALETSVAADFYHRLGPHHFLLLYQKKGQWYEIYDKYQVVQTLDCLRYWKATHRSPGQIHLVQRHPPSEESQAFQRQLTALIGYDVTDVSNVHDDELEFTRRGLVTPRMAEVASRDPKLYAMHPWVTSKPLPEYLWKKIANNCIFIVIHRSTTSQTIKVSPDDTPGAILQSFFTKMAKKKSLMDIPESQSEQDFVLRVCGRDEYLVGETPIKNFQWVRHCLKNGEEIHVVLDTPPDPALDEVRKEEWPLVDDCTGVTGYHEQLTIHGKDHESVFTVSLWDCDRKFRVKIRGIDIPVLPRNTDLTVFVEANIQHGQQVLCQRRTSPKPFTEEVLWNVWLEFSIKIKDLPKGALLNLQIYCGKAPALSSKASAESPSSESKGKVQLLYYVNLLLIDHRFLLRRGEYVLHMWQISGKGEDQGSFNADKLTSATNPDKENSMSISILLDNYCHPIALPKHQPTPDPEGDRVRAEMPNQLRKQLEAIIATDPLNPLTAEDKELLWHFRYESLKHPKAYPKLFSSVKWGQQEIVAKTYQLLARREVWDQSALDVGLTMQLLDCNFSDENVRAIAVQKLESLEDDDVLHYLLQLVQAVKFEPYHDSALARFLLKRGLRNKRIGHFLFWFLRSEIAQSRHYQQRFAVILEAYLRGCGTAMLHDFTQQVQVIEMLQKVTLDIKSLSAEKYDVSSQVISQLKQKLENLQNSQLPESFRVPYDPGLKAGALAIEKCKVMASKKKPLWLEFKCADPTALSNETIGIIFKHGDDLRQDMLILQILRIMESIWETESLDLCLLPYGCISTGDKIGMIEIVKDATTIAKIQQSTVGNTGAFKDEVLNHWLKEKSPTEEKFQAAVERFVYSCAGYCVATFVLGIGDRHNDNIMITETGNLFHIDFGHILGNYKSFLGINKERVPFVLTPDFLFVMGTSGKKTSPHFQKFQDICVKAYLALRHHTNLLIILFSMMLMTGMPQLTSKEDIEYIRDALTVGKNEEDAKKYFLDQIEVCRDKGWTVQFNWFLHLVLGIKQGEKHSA
Assay Explanation: PI3Kγ inhibitory activity (Ki value)
Format: biochemical
Condition Notes: class symbols; read-out: PI3K γ Ki
Endpoint Name: Ki

Guide cases for Ki, answers given:
[[record]]
compound = "COc1cncc(-c2ccc3nc(NC(=O)Nc4ccccc4OCCC(C)C)cn3n2)c1"
endpoint_name = "Ki"
assay_value = "≤ 300 nM"

[[record]]
compound = "COc1cc(N2CCc3nc(NC(=O)Nc4ccccc4C4=NC(C)(C)CO4)sc3C2)nc(OC)n1"
endpoint_name = "Ki"
assay_value = "≤ 300 nM"

[[record]]
compound = "Cc1cc(N2Cc3sc(NC(=O)Nc4ccccc4C(=O)NC(C)C)nc3C(C)C2)nc(Cl)n1 (stereo not shown)"
endpoint_name = "Ki"
assay_value = "≤ 30 nM"

[[record]]
compound = "COc1cccc(-c2ccc3nc(NC(=O)Nc4ccccc4C(=O)NC(C)C)cn3n2)c1"
endpoint_name = "Ki"
assay_value = "≤ 30 nM"

[[record]]
compound = "COc1nc(Cl)cc(N2CCc3nc(NC(=O)Nc4ccccc4C(=O)NC4CCCOC4)sc3C2)n1 (stereo not shown)"
endpoint_name = "Ki"
assay_value = "≤ 3 nM"

[[record]]
compound = "COc1cc(N2CCc3nc(NC(=O)Nc4ccccc4C(=O)NC(C)C)sc3C2)nc(OC)n1"
endpoint_name = "Ki"
assay_value = "≤ 30 nM"


Now turn to the next compound.
What does the record list as Ki for COc1nc(Cl)cc(N2CCc3nc(NC(=O)Nc4cnccc4C(=O)NC(C)C)sc3C2)n1 ?
≤ 3 nM

----------
# reported solubility at 16 h; entries follow
Assay Explanation: Solubility test (artificial intestinal juice pH 6.8, 1% DMSO)
Type: physicochemical
Condition Notes: artificial intestinal juice pH 6.8 with 1% DMSO, fassgf or other biorelevant, kinetic from dmso stock, 25° C.
The reply should contain only the number, in µM.

Guide cases for solubility at 16 h, answers given:
[[record]]
molecule = "COc1cc(N2CCc3nc(NC(=O)Nc4ccccc4C(=O)NC(C)CO)sc3C2)cnc1OC (stereo not shown)"
assay_value = 39.6

[[record]]
molecule = "CCOC(=O)[C@H]1CCC[C@H]1NC(=O)Nc1nc2c(s1)CN(c1cc(OC)nc(OC)n1)CC2"
assay_value = 36.1


What does the record list as solubility at 16 h for CCNC(=O)c1ccncc1NC(=O)Nc1nc2c(s1)CN(c1cnc(OC)c(OC)c1)CC2 ?
30.1
